tested on: HCT-116; assay: NCI tumour cell line growth inhibition, 48 h
Calls of active or inactive are those of the source. Rule as the data show it: active = GI50 up to about 1.1 µM and inactive = higher.
Lab note: assign the record to one of True = active, False = inactive

Here are 5 compounds together with their reported answers.
{"columns": ["compound", "answer label"],
 "data": [
  ["Cc1cn(C2CC(N=[N+]=[N-])C(CO)O2)c(=O)n(CCCCO)c1=O (centres undefined)", "False"],
  ["O=C1C=C(Nc2ccccc2C(=O)CC(=O)C(=O)Nc2cccc([N+](=O)[O-])c2)c2ccccc2C1=O", "False"],
  ["COc1ccc(/C=C/C(=O)/C=C/c2ccc(OC)cc2OC)c(OC)c1", "False"],
  ["NC1=NC(c2ccccc2)CC(c2cc(Cl)ccc2O)=N1 (centres undefined)", "False"],
  ["c1coc(CNc2[nH]cnc3nncc2-3)c1", "False"]
]}

# outcome recorded in this test, key = COc1nc(N)c(/N=C/C(OC(C)=O)C(OC(C)=O)C(COC(C)=O)OC(C)=O)c(=O)n1C (centres undefined) False

----------
tested on: EKVX; assay: NCI tumour cell line growth inhibition, 48 h
Activity calls are given as the source filed them. Rule as the data show it: active = GI50 up to about 1.1 µM and inactive = higher.
quantity: GI50

Each compound below has a recorded value; state its GI50.
1. COc1ccc(-c2cc(O)c3cc4c(cc3n2)OCO4)cc1
2. CCC(C)C(NC(=O)C(CCCC[N+](=N)N)NC(=O)C(CCCC[N+](=N)N)NC(=O)c1ccc(OC)cc1)C(=O)NC(CCCC[N+](=N)N)C(=O)N1CCCC1C(=O)NC(CCCCN)C(=O)NC(CC(C)C)C(N)=O (stereo unspecified)
3. CC1CNC(c2ccc3c(c2)Cc2cc(C4=NC(C)CN4)ccc2-3)=N1 (stereo unspecified)
4. Cc1ccc(C2=Nc3ccccc3NC(=O)C2)cc1
5. OCC[N+]12CCCN1CCC2

1: 19.9 µM (inactive); 2: > 100 µM (inactive); 3: > 100 µM (inactive); 4: > 100 µM (inactive); 5: > 100 µM (inactive)

Parameter requested: GI50. Apply to each item below.
1. COC1(C)OC[C@@]2(C)OC(C)C1(C)C2O[Si](C(C)C)(C(C)C)C(C)C (stereo partly specified)
2. O=C1CC(c2cccc(Cl)c2)Oc2ccccc21 (stereo unspecified)
3. Cc1ccc(S(=O)(=O)NNC(=O)c2cc(C)c(C)cc2N)cc1
4. CN1S(=O)(=O)N(C)P12(N=P(CP(=NP13(N(C)S(=O)(=O)N1C)N(C)S(=O)(=O)N3C)(c1ccccc1)c1ccccc1)(c1ccccc1)c1ccccc1)N(C)S(=O)(=O)N2C
5. OC12C3C4CC5C(C4[C@@H]1Br)C2[C@@](O)(c1c(F)c(F)c(F)c(F)c1F)C53 (stereo partly specified)
6. Cc1ccc(C(=O)Nc2ccc(CP(=O)(O)O)cc2)cc1NC(=O)Nc1cc(C(=O)Nc2ccc(CP(=O)(O)O)cc2)ccc1C

24.9 µM (inactive)
14.8 µM (inactive)
> 100 µM (inactive)
> 100 µM (inactive)
27.1 µM (inactive)
> 100 µM (inactive)

----------
tested on: SNB-75; experiment: NCI tumour cell line growth inhibition, 48 h
Active and inactive are the calls of the source. No stated cut-off is given here; in the data, active = GI50 up to about 1.1 µM and inactive = higher.
quantity: GI50

{"columns": ["compound", "GI50"],
 "data": [
  ["O=C1C=C(Br)C(=O)C(Br)=C1", "> 100 µM (inactive)"]
]}

For each of the compounds below, state GI50.
1. CCCCc1ccc(Nc2nc(Cl)c3ncn(COCCOC(C)=O)c3n2)cc1
2. CCOC(=O)/C=C(\C(=O)OCC)n1cc(C)c(=O)n(Cc2cn(COCCOC(C)=O)nn2)c1=O
3. C[N+]1(CCN[N+]2(C)CCCCC2)CCc2ccccc2C1 (centres undefined)

1. 24.5 µM (inactive)
2. 21 µM (inactive)
3. > 100 µM (inactive)

----------
test system: RPMI-8226; assay: NCI tumour cell line growth inhibition, 48 h
Active and inactive are the calls of the source. Rule as the data show it: active = GI50 up to about 1.1 µM and inactive = higher.
Outcome (select one): active, inactive

Answered examples (5):
{"columns": ["compound", "answer label"],
 "data": [
  ["COC(=O)CCc1ccc2c(c1)CC1(Cc3ccccc3C1)C2", "inactive"],
  ["COC(=O)c1sc(C(=O)OC)c2c1CSC2", "inactive"],
  ["CCOc1ccc(/C=N/[N+](C)(C)C)cc1OCC", "inactive"],
  ["C/C=C1/CN2CCC34C5=CC(=O)C(c6cc7c(cc6OC)N(C)C6=C(C(=O)OC)CC8(CC)CCCN9CCC67C98)=CC5=NC23CCC1C4C(=O)OC (stereo not drawn)", "inactive"],
  ["CS/C(N)=N/c1cccc2ccccc12", "inactive"]
]}

Hi, do you know how CC(C)[Si]1(C(C)C)OCC2OC(n3cnc4c(N)ncnc43)C(N)C2O[Si](C(C)C)(C(C)C)O1 (stereo not drawn) came out in this test? inactive

Repeat for the following compound: C(=N\c1ccc(-c2nc3ccccc3o2)cc1)/c1ccco1 active

Query CC1=NN(c2ccccc2)C(=O)/C1=C/c1ccc(O)cc1 next inactive

Next compound: Nc1cccc(S(=O)(=O)Nc2nnc(S(N)(=O)=O)s2)c1 inactive

What do you have for CC(C)Nc1n[nH]c(=O)n1C(C)C ? inactive

Moving on to N#C/C(=C\n1ccc(=O)[nH]c1=S)C(N)=O inactive

And what about the compound O=C(O)CCc1ccc2c(c1)C(=O)CC2 ? inactive

Same thing, different compound: CC(=O)O[C@H]1C(=O)[C@@]2(C)[C@H]([C@H](OC(=O)c3ccncc3)[C@]3(O)C[C@H](OC(=O)[C@H](O)[C@@H](NC(=O)c4ccccc4)c4ccccc4)C(C)=C1C3(C)C)[C@]1(OC(C)=O)CO[C@@H]1C[C@@H]2O active

----------
test system: OVCAR-8; test: NCI tumour cell line growth inhibition, 48 h
The source made the active and inactive calls. Cut-off read from the data, not from the text of the source: active = GI50 up to about 1.1 µM and inactive = higher.
Response enum: active, inactive

These recorded examples may help you get a feel for the data.
{"columns": ["molecule", "target desc", "answer label"],
 "data": [
  ["O=C1CC(c2cccc(Cl)c2)Oc2ccccc21 (configuration not stated)", "OVCAR-8", "inactive"],
  ["COc1ccc(/C=C/C(=O)c2sc(Nc3ccc([N+](=O)[O-])cc3)nc2C)cc1", "OVCAR-8", "inactive"]
]}

Kindly provide the recorded test outcome for the following molecule: Cc1nn(-c2ccccc2)c2c1C(c1cc3ccccc3nc1Cl)NC(=O)N2 (configuration not stated) inactive

Another molecule to look at: COc1ccc(-c2cc(O)c3cc4c(cc3n2)OCO4)cc1 inactive

And what about the molecule CS/C(N)=N/c1cccc2ccccc12 ? inactive

Now this one: Oc1ccccc1/C=N/c1ccc(Oc2ccc(Cl)cc2)c(Cl)c1 inactive

One more molecule: CC(c1ccc(Br)cc1)C(C(=O)O)C(=O)O (configuration not stated) inactive

How about CC(C)/C(Cl)=N\OC(=O)Nc1ccc(F)cc1 ? inactive

Try this molecule next: CCNCC(=O)Nc1ccc2c(c1)C(=O)c1ccc(NC(=O)CNCC)cc1C2=O inactive

Consider next the molecule COC(=O)C(Cc1nc2ccccc2nc1O)/C(=N\NC(C)(C)C)C(=O)Nc1c(C)cc(Br)cc1C (configuration not stated) in the same way. inactive

Param item: CCCCS(=O)(=O)CCC(N)C(=O)O (configuration not stated) inactive

Further, for COc1cc2c(cc1OC)[C@H]1CN3CCC[C@H]3C=C1c1ccc(OC)c(O)c1-2 ? active

----------
test system: SNB-75; test: NCI tumour cell line growth inhibition, 48 h
The source made the active and inactive calls. Cut-off read from the data, not from the text of the source: active = GI50 up to about 1.1 µM and inactive = higher.
Thanks in advance; please answer with one of these: 1 = active, -1 = inactive

Examples with answers:
{"columns": ["compound", "answer label"],
 "data": [
  ["CC(=O)OCC(=O)OC[C@H](OCc1ccccc1)[C@@H]1[C@H](OC(C)=O)C(=O)N1Cc1ccccc1", -1],
  ["Cn1c(=O)c(C(=O)Nc2nc(C34CC5CC(CC(C5)C3)C4)cs2)c(O)c2ccccc21", -1],
  ["Cc1ccccc1OC(C)C(=O)NN1C(=O)CC(=O)N(c2ccc(Cl)cc2)C1=S (stereo unspecified)", -1],
  ["O=[N+]([O-])c1cccc2nc3ccccc3c(NCCN(CCO)CCO)c12", 1],
  ["COc1ccccc1/N=N/C(=N\\NC(=O)c1ccc(C)cc1)c1ccc(N(CCC#N)CCC#N)cc1C", -1]
]}

Could you check what this test reported for C[C@]12CC(c3ccccc3O1)C(C(=O)Nc1nc(C34CC5CC(CC(C5)C3)C4)cs1)C(=O)N2 (stereo partly specified) ? -1

----------
tested on: SR; experiment: NCI tumour cell line growth inhibition, 48 h
Activity calls are given as the source filed them. Cut-off read from the data, not from the text of the source: active = GI50 up to about 1.1 µM and inactive = higher.
Hello, when you answer, please use one of the following outcomes: 1 (yes) for active, 0 (no) for inactive

{"columns": ["molecule", "answer label"],
 "data": [
  ["c1csc(-c2ccc(-c3cccc4nsnc34)s2)c1", "0 (no)"],
  ["CCOC(=O)c1c(C)c(C)n2c1NC(=O)C2", "0 (no)"],
  ["FC(F)(F)c1cnc(N/N=C(/c2ccccc2)c2ccccn2)c(Cl)c1", "0 (no)"],
  ["CC(=O)O[C@H]1C(=O)[C@@]2(C)[C@H]([C@H](OC(=O)c3ccncc3)[C@]3(O)C[C@H](OC(=O)[C@H](O)[C@@H](NC(=O)c4ccccc4)c4ccccc4)C(C)=C1C3(C)C)[C@]1(OC(C)=O)CO[C@@H]1C[C@@H]2O", "1 (yes)"],
  ["CS/C(N)=N/c1cccc2ccccc12", "0 (no)"]
]}

So what was the verdict on S=c1c2cc(I)ccc2nc(S)n1Cc1ccccc1 in this test? 0 (no)

Field entry: CCOC(=O)c1[nH]c(COC(C)=O)c2c1CCCCCCCCCC2 0 (no)

Quick one: CN1/C(=C/C(=O)c2ccc(Cl)cc2)Nc2ccccc21 0 (no)

Same thing, different molecule: COC1CC(CC2CCC(C)C(C(C)C(=O)O)O2)OC2(OC(C)(C3CCC(C)(C4OC(C5OC(O)(CO)C(C)CC5C)CC4C)O3)CC2C)C1C (stereo not given) 1 (yes)

Try this molecule next: CC(C)C(Sc1nc(-c2ccccc2)c(-c2ccccc2)[nH]1)c1n[nH]c(=S)n1-c1ccccc1 (stereo not given) 0 (no)
